assay: mutant yeast GCN4 reporter luminescence inhibitors – S. cerevisiae, eIF2B-epsilon R284H, Beta-Glo luminescence, primary screen (AID 688); conditions: GCN4-lacZ luminescence; measured here: mutant yeast growth, toxicity, concentration not given here
Screen size: about 27,000 compounds; about 250 (0.93%) were called active. The entries come from a sample that favours actives as a whole.
Catalogue of compounds with associated growth inhibition
Experimental endpoint: growth inhibition (%)

INSERT INTO measurements (compound, reported_result) VALUES
  ('O=C(O)CSCC(=O)Nc1cccc(C(F)(F)F)c1', 12.1),
  ('COCCNC(=O)COc1ccccc1C', 6.67),
  ('COc1ccc(S(=O)(=O)N2CCCC(C(=O)N3CCN(C)CC3)C2)cc1C (configuration not stated)', 6.9),
  ('O=C(Nc1nc2ccc(S(=O)(=O)N3CCCC3)cc2s1)C1CCCO1 (configuration not stated)', -18.2),
  ('Cc1sc2nc(SCC(N)=O)n(C)c(=O)c2c1C', 6.45),
  ('CCOC(=O)c1ccccc1NS(=O)(=O)c1ccc(OC)cc1', 10.5),
  ('CCOC(=O)C1=C(C)NC2=C(C(=O)CC(C)(C)C2)C1c1ccsc1 (configuration not stated)', -7.5),
  ('CC(C)C(NC(=O)c1ccc(Cl)cc1)C(=O)O (configuration not stated)', 16.2),
  ('CS(=O)(=O)c1ccc2nc(NC(=O)C3C4C=CC(C4)C3C(=O)O)sc2c1 (configuration not stated)', -6.9),
  ('COCCOCCn1cnc2ccccc21', 6.67),
  ('Cc1ccc(S(=O)(=O)c2c(COC(=O)c3cccc(Cl)c3)c(-c3ccccc3)nn2C)cc1', 12.1),
  ('Cc1c(C(=O)CN2CCOCC2)[nH]c2ccccc12', 18.5);

====

Catalogue of compounds with associated growth inhibition
assay: mutant yeast GCN4 reporter luminescence inhibitors – S. cerevisiae, eIF2B-epsilon R284H, Beta-Glo luminescence, primary screen (AID 688); settings: GCN4-lacZ luminescence; measured here: mutant yeast growth, toxicity, concentration not given here
Out of some 27,000 compounds screened, about 250 (0.93%) were called active. The entries come from a sample that favours actives as a whole.
Experimental endpoint: growth inhibition

INSERT INTO assay_data (compound, experimental_endpoint, reported_result) VALUES
  ('Cc1cc(C)n(-c2cc(Oc3ccccc3)ncn2)n1', 'growth inhibition', '-5.56%'),
  ('Cc1ccc(C(=O)N/N=C/c2sc(=O)n(Cc3cccc(C(=O)O)c3)c2Cl)cc1', 'growth inhibition', '-9.52%'),
  ('CCCNC(=O)NCc1ccc(N2CCCC2=O)cc1', 'growth inhibition', '12.5%'),
  ('O=C(NC1(C(F)(F)F)NC(=O)N(Cc2cccnc2)C1=O)c1ccccc1Cl (stereo unspecified)', 'growth inhibition', '-9.52%'),
  ('COC(=O)C1=C(C(=O)OC)C2(OC1c1ccc(Br)cc1)C(=O)c1ccccc1C2=O (stereo unspecified)', 'growth inhibition', '-26.3%'),
  ('CCOC(=O)CSc1nccc(N(C)C)c1C#N', 'growth inhibition', '12%');

====

experiment: mutant yeast GCN4 reporter luminescence inhibitors – S. cerevisiae, eIF2B-epsilon R284H, Beta-Glo luminescence, primary screen (AID 688); conditions: GCN4-lacZ luminescence; stronger effect = higher value, screened at 25 µM (by protocol)
Screen size: about 27,000 compounds; about 250 (0.93%) were called active. The sample holds actives, similar compounds and a random draw of the others, so the mix is not that of the screen.
Catalogue of compounds with associated inhibition
Experimental endpoint: inhibition (%)

INSERT INTO results (compound, experimental_endpoint, reported_result) VALUES
  ('CC1(C)CC(=O)C=C(NCCN2CCNCC2)C1', 'inhibition', 32.9),
  ('O=C(CSc1nnnn1-c1ccccc1)NCc1ccco1', 'inhibition', -70.2),
  ('CCc1c(-c2ccccc2)nc(N)c(C#N)c1-c1cccs1', 'inhibition', 15.9),
  ('COC(=O)C1=C(C)NC(=O)NC1/C=C/c1ccccc1 (stereo not drawn)', 'inhibition', 22.3),
  ('Cc1nc2cc(NC(=O)NCc3ccccc3)ccc2o1', 'inhibition', -14.4),
  ('Cn1c2c(c(=O)n(C)c1=O)C(c1cccc([N+](=O)[O-])c1)Nc1ccccc1O2 (stereo not drawn)', 'inhibition', 20.4),
  ('O=C1c2ccccc2C(=O)N1CCCc1nc(-c2ccccc2)no1', 'inhibition', -17.2),
  ('CCOC(=O)c1[nH]c2ccc(OC)cc2c1NC(=O)N1CCOCC1', 'inhibition', -48.6),
  ('CCOC(=O)C1=C(CSc2nnnn2C)N(C)C(=O)NC1c1ccccc1 (stereo not drawn)', 'inhibition', 19.9),
  ('CCOC(=O)CSc1nncc2ccc(OC)c(OC)c12', 'inhibition', 50.1),
  ('CCOC(=O)c1c(N)sc(C(C)=O)c1C', 'inhibition', 2.16),
  ('CC1(C)CC(=O)C=C(NCCCNC2CCCCC2)C1', 'inhibition', 53.4),
  ('Cc1ccc(NC(=O)N2CCC(O)(c3cccnc3)CC2)cc1', 'inhibition', 17.2),
  ('O=C(Cc1ccccc1)Nc1c(C(=O)N2CCCCCC2)cnn1-c1ccccc1', 'inhibition', -14.8),
  ('CCOC(=O)C1=C(C)NC2=C(C(=O)CC(C)(C)C2)C1c1ccsc1 (stereo not drawn)', 'inhibition', 9.79),
  ('O=C(NCc1ccccn1)c1cc(-c2ccccc2Cl)on1', 'inhibition', 8.32),
  ('CCOC(=O)CSc1nccc(N(C)C)c1C#N', 'inhibition', 24.8),
  ('CC(=O)NC1=NN(C(C)=O)C(C)(c2ccc(Cl)s2)S1 (stereo not drawn)', 'inhibition', 44.3),
  ('COCc1nnc(NC(=O)CS(=O)(=O)Cc2ccccc2)s1', 'inhibition', 8.87),
  ('CCC(C(=O)NC1CCCC1)N(C(=O)c1snc(C(N)=O)c1N)c1ccc2c(c1)OCCO2 (stereo not drawn)', 'inhibition', 52.4),
  ('O=C(CSc1nnc(-c2ccccn2)n1-c1ccccc1)Nc1ccc2c(c1)OCO2', 'inhibition', 55.6),
  ('CC(C)COC(=O)c1ccc(NC(=O)C2C3C=CC(C3)C2C(=O)O)cc1 (stereo not drawn)', 'inhibition', 15.8),
  ('CC(C)CC(N=C1NC(C)(C)Cc2ccccc21)C(=O)O (stereo not drawn)', 'inhibition', 6.22),
  ('Cc1cccc(NC(=O)C2CC(=O)OC23CCCC3)c1 (stereo not drawn)', 'inhibition', -11.9),
  ('O=C(O)CCSc1nnc(-c2ccccc2)n1-c1ccccc1', 'inhibition', 19.8),
  ('CC(C)(C)n1nnnc1C(c1ccc(Cl)cc1)N1CCSCC1 (stereo not drawn)', 'inhibition', 13.7),
  ('CS(=O)(=O)c1ccc2nc(NC(=O)C3C4C=CC(C4)C3C(=O)O)sc2c1 (stereo not drawn)', 'inhibition', 55.1),
  ('Cc1ccnc(NC(=O)c2ccc(NC(=O)c3ccco3)cc2)c1', 'inhibition', 8.24),
  ('CC1(C)CC(=O)C=C(N2CCCC2)C1', 'inhibition', 30.3),
  ('CCCc1nc2c3cnn(-c4cccc(Cl)c4)c3ncn2n1', 'inhibition', 17.9),
  ('CCOCN(C(=O)Cn1c(C(C)O)nc2ccccc21)c1c(C)cccc1CC (stereo not drawn)', 'inhibition', 20.1),
  ('COc1ccccc1-n1nnnc1S(=O)(=O)Cc1ccc(Cl)cc1', 'inhibition', 24.8),
  ('O=C(CCCn1c(=O)oc2ccccc21)Nc1cccnc1', 'inhibition', 22.3),
  ('CCOC(=O)CSc1nnc(CNc2ccc(F)cc2)o1', 'inhibition', 19.4),
  ('CCOC(=O)CSc1nnc(CNC(=O)Cc2ccccc2)n1-c1ccccc1OC', 'inhibition', 36.1),
  ('O=C(CSc1nnc(-c2cccnc2)n1CCc1ccccc1)NCc1ccccc1', 'inhibition', -28.6),
  ('CCc1nnc(NC(=O)CSc2nc3ccccc3c(=O)n2CCCOC)s1', 'inhibition', -1.74),
  ('O=C(O)CSc1nccn1-c1cccc(Cl)c1', 'inhibition', -8.74),
  ('Cc1ccc(S(=O)(=O)NCC(C)NS(C)(=O)=O)cc1 (stereo not drawn)', 'inhibition', -24.4),
  ('Cc1ccc(-n2c(SCC(=O)Nc3ccc4c(c3)OCO4)nnc2-c2ccoc2C)cc1', 'inhibition', -19.2),
  ('CCOCCn1c(C(C)C)nc2ccccc21', 'inhibition', -14.4),
  ('COC(=O)c1ccc(Sc2ccc(F)cc2)c(N)c1', 'inhibition', 23.2),
  ('CCCNC(=O)N1CCN(C(=O)NCCC)CC1', 'inhibition', 3.89),
  ('O=C(COc1ccccc1Cl)Nn1cnnc1', 'inhibition', 14.3),
  ('COc1ccc(C2C(C(C)=O)=C(O)C(=O)N2Cc2cccnc2)cc1 (stereo not drawn)', 'inhibition', -0.66),
  ('CC(C)C(=O)Nc1nnc(Sc2ccc(N(C)C)cc2)s1', 'inhibition', -11.6),
  ('COc1ccc(C2N=C(N)N=C(N)N2c2ccccc2)cc1OC (stereo not drawn)', 'inhibition', -6.05),
  ('Cc1ccc(-n2c(SCC(=O)Nc3ccc4c(c3)OCO4)nnc2-c2ccccn2)cc1', 'inhibition', -3.69);
